- targetOrTestSystem: Serotonin 3 receptor (5HT3) (Mus musculus, UniProt Q9JHJ5+P23979)
- procedureDetails: The binding affinity was measured for 5-hydroxytryptamine 3 receptor on NG 108-15 cell line of mouse neuroblastoma-glioma cells in presence of [3H]5 radioligand (in vitro)
- Format: cell-based
recordedEndpoint: Ki (nM)
Numbers only; they are read as nM.

Q: // query Ki value for entry `Cc1[nH]c2ccc(O)cc2c1CCN`
A: 1430

Q: Entry Cc1nccn1CC1CCc2c(c3ccccc3n2C)C1=O (centres undefined) [ONDANSETRON] : reported Ki = ?
A: 12

Q: Please give the measured Ki for this molecule: c1ccc2nc(N3CCNCC3)ccc2c1 [QUIPAZINE]
A: 8.67

Q: Which Ki value is on record for CN1[C@@H]2CC[C@H]1C[C@@H](OC(=O)c1c[nH]c3ccccc13)C2 [TROPISETRON] ?
A: 3.8
